The following molecules are shown together with reported growth values.
Test system: UACC-62 melanoma
assay.notes: NCI-60 one-dose screen, 48 h (100 = growth as untreated, 0 = no growth, -100 = all killed)
conditions.used: 10 µM
The panel holds about 83,000 compounds, 20% with a hit somewhere; the sample as a whole holds those more often.
property.label: growth (%)

INSERT INTO results (cpd_smiles, endpoint_value) VALUES
  ('O=C(NCCNC(=O)c1ccc(F)cc1)Nc1ccc(-n2cc(-c3ccncc3)c(-c3ccc(Cl)c(O)c3)n2)cc1', 7.05),
  ('COc1cc(C(=O)/C=C/c2c[nH]c3ccccc23)cc(OC)c1OC', 30.6),
  ('CCOC(=O)c1cc(C(=O)c2ccc(OC)c(OC)c2)n2c1ccc1ccc3cccnc3c12', 47.4),
  ('COCCn1cc(-c2nc(-c3cccnc3)cs2)c2cc(F)ccc21', 89.2);

###

The following molecules are shown together with reported growth values.
Tested on: IGROV1 ovarian
assay.notes: NCI-60 one-dose screen, 48 h (100 = growth as untreated, 0 = no growth, -100 = all killed)
conditions.used: 10 µM
About 83,000 compounds went through this panel and 20% of them were active in at least one assay; those are over-represented in the sample as a whole.
property.label: growth (%)

INSERT INTO measurements (cpd_smiles, target, endpoint_value) VALUES
  ('COc1ccc(C(=O)c2cc3c(OC)c(OC)c(OC)cc3[nH]2)cc1', 'IGROV1 ovarian', 35),
  ('CS(=O)(=O)c1nccc(-c2c(-c3cccc(OCCN4CCOCC4)c3)nc3sccn23)n1', 'IGROV1 ovarian', 80.2),
  ('CCn1c(CSc2nc3ccccc3c(=O)n2CCc2ccccc2)n[nH]c1=S', 'IGROV1 ovarian', 93.4),
  ('CCn1c(SCCc2ccccc2)nnc1-c1nn(-c2ccc(Cl)cc2Cl)c(-c2ccc(Cl)cc2)c1C', 'IGROV1 ovarian', 94.1),
  ('CCN(CC)CCOc1cccc2c1C(=O)c1cccc(OCCN(CC)CC)c1C2=O', 'IGROV1 ovarian', 33.9),
  ('O=C(CCCCC(=O)Oc1c(Cl)cc(Cl)cc1[N+](=O)[O-])Oc1c(Cl)cc(Cl)cc1[N+](=O)[O-]', 'IGROV1 ovarian', 101),
  ('CCOC(=O)c1cc(C(=O)c2ccc(F)cc2F)n2ccccc12', 'IGROV1 ovarian', 82.3),
  ('IC(I)I', 'IGROV1 ovarian', 103),
  ('Oc1cccc(-c2nc3sccn3c2-c2ccncn2)c1', 'IGROV1 ovarian', 91.2);

###

Tested on: HOP-92 NSCLC
assay.notes: NCI-60 one-dose screen, 48 h (100 = growth as untreated, 0 = no growth, -100 = all killed)
conditions.used: 10 µM
Compounds without any hit were thinned out: in the full panel of roughly 83,000, 20% have a hit.
property.label: growth (%)

INSERT INTO assay_data (compound, target, endpoint_value) VALUES
  ('O=C(Nc1ccc(NS(=O)(=O)c2ccc(F)cc2)cc1)C12CC3CC(CC(C3)C1)C2', 'HOP-92 NSCLC', 106),
  ('Cc1c2cnccc2c(C)c2c1oc1ccccc12', 'HOP-92 NSCLC', 113),
  ('O=C(Nc1ccc(F)cc1)c1cc2ccccc2cc1O', 'HOP-92 NSCLC', 2.82),
  ('COc1cc(N)c2ncccc2c1SC', 'HOP-92 NSCLC', 94.6),
  ('CCC(C)[C@H](NC(C)=O)C(=O)N[C@@H](CCCNC(=N)N)C(=O)N[C@@H](CCCCN)C(=O)N[C@@H](CC1CCC(O)CC1)C(=O)NC(C(=O)N[C@@H](CCSC)C(=O)N[C@@H](CCCNC(=N)N)C(=O)N[C@@]1(C)CCC/C=C\CCC[C@@](C)(C(=O)NC(C(=O)N[C@@H](CCC(=O)O)C(=O)N[C@@H](CC(C)C)C(=O)N[C@H](C(=O)N[C@@H](CCC(=O)O)C(N)=O)C(C)C)[C@@H](C)O)NC(=O)[C@H](CCC(N)=O)NC(=O)[C@H](CC(C)C)NC(=O)[C@H](CC(C)C)NC1=O)[C@@H](C)O (some centres not stated)', 'HOP-92 NSCLC', 103),
  ('Nc1nc(N)c(N)c(Nc2ccc(CCO)cc2)n1', 'HOP-92 NSCLC', 118),
  ('CN(C)CCCOc1cccc(NC2=C(Cl)C(=O)C(Nc3cccc(OCCCN(C)C)c3)=C(Cl)C2=O)c1', 'HOP-92 NSCLC', -74.3);
